Origin of measurements: patent US20230365554A1

Test system human CSNK1A1 (Homo sapiens (Human), UniProt P48729), pIC50 listed for each of the compounds.
Note on pIC50: it is the negative log10 of concentration, concentration in mol/L.

>>> result_number("O=C1N[C@@H]2CCC[C@@H]2c2[nH]c(-c3ccnc(NC(=O)C(CC(F)F)c4ccc(F)cc4)c3)c(Nc3ccccc3)c21 (single isomer, unassigned; (-)) [Example 23]")
7.62
>>> result_number("Cc1ccccc1Nc1c(-c2ccnc(NC(=O)Cc3ccc(F)cc3)c2)[nH]c2c(CC(F)(F)F)cn(C)c(=O)c12")
8.07
>>> result_number("CCC1CNC(=O)c2c1[nH]c(-c1ccnc(NC(=O)Cc3ccc(F)cc3)c1)c2Nc1ccccc1 (single isomer, unassigned) [Example 3]")
8.42
>>> result_number("CN1CC(CC(F)(F)F)c2[nH]c(-c3ccnc(NC(=O)C(CC(F)F)c4ccc(F)cc4)c3)c(Nc3cscn3)c2C1=O (single isomer, unassigned) [Example 55]")
7.23
>>> result_number("Cn1cc(CC2CC2)c2[nH]c(-c3ccnc(NC(=O)Cc4ccc(F)cc4)c3)c(Nc3ccccc3)c2c1=O")
7.57

Which pIC50 value is on record for CN1CC(CC(F)(F)F)c2[nH]c(-c3ccnc(NC(=O)C(CC(F)F)c4ccc(F)cc4)c3)c(Nc3cscn3)c2C1=O (single isomer, unassigned) [Example 56] ?
8.11

---

# ASSAY_SYSTEM: human CSNK1D (Homo sapiens (Human))
Listed next: entries and their corresponding IC50.
Response body: numeric value in nM, unit text excluded.

Worked set:
>>> result_number("CN1CC(CC2CC2)c2[nH]c(-c3ccnc(NC(=O)Cc4ccc(F)cc4)c3)c(Nc3cscn3)c2C1=O (racemic) [Example 49]")
14
>>> result_number("Cn1cc(CC(F)(F)F)c2[nH]c(-c3ccnc(NC(=O)C(CC(F)F)c4ccc(F)cc4)c3)c(Nc3ccccc3)c2c1=O (racemic) [Example 35]")
5.9

Which IC50 value is on record for CN1CC(CC(F)F)c2[nH]c(-c3ccnc(NC(=O)Cc4ccc(F)cc4)c3)c(Nc3ccccc3)c2C1=O (single isomer, unassigned) [Example 44] ?
5.9

Queued: Cc1cn(C)c(=O)c2c(Nc3ccccc3)c(-c3ccnc(NC(=O)C(C)c4ccc(F)cc4)c3)[nH]c12 (single isomer, unassigned) [Example 40]
19

Queued: CN1CC(CC(F)F)c2[nH]c(-c3ccnc(NC(=O)Cc4ccc(F)cc4)c3)c(Nc3ccccc3)c2C1=O (racemic) [Example 42]
4.1

Queued: O=C1N[C@@H]2CCC[C@@H]2c2[nH]c(-c3ccnc(NC(=O)C(CC(F)F)c4ccc(F)cc4)c3)c(Nc3ccccc3)c21 (mixture of isomers) [Example 21]
18

---

# ASSAY_SYSTEM: human CSNK1D (Homo sapiens (Human), UniProt P48730)
# Sequence (P48730 whole entry): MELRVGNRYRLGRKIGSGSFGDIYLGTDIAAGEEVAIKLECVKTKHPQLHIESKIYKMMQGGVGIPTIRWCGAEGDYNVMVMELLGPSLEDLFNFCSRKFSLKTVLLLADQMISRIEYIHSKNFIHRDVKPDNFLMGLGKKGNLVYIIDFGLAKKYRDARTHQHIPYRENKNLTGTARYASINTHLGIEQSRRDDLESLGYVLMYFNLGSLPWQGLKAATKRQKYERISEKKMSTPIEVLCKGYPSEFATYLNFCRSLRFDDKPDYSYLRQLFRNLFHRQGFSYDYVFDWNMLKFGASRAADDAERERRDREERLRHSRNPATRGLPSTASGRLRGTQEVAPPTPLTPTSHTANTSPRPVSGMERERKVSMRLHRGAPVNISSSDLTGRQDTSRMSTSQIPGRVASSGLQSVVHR
Listed next: entries and their corresponding pIC50.
Note on pIC50: it is the negative log10 of concentration, concentration in mol/L.

Worked set:
>>> result_number("C[C@H](C(=O)Nc1cc(-c2[nH]c3ccn(C)c(=O)c3c2Nc2ccccc2)ccn1)c1ccc(F)cc1 (single isomer, unassigned)")
7.66
>>> result_number("CN1CC(CC(F)(F)F)c2[nH]c(-c3ccnc(NC(=O)Cc4ccc(F)cc4)c3)c(Nc3cscn3)c2C1=O (single isomer, unassigned) [Example 47]")
8.08
>>> result_number("CN1CC(CC2CC2)c2[nH]c(-c3ccnc(NC(=O)Cc4ccc(F)cc4)c3)c(Nc3ccccc3)c2C1=O (single isomer, unassigned) [Example 19]")
8.19
>>> result_number("CN1CC(CC(F)(F)F)c2[nH]c(-c3ccnc(NC(=O)C(CC(F)F)c4ccc(F)cc4)c3)c(Nc3cscn3)c2C1=O (single isomer, unassigned) [Example 54]")
8.40
>>> result_number("CCC1CNC(=O)c2c1[nH]c(-c1ccnc(NC(=O)Cc3ccc(F)cc3)c1)c2Nc1ccccc1 (single isomer, unassigned) [Example 2]")
8.28
>>> result_number("Cn1cc(CC2CC2)c2[nH]c(-c3ccnc(NC(=O)Cc4ccc(F)cc4)c3)c(Nc3ccccc3)c2c1=O")
7.44
>>> result_number("CC1CN(C)C(=O)c2c1[nH]c(-c1ccnc(NC(=O)Cc3ccc(F)cc3)c1)c2Nc1ccccc1 (racemic) [Example 6]")
8.19
>>> result_number("CN1CC(CC2CC2)c2[nH]c(-c3ccnc(NC(=O)Cc4ccc(F)cc4)c3)c(Nc3cscn3)c2C1=O (single isomer, unassigned) [Example 51]")
7.24
>>> result_number("Cc1ccccc1Nc1c(-c2ccnc(NC(=O)Cc3ccc(F)cc3)c2)[nH]c2c(CC(F)(F)F)cn(C)c(=O)c12")
8.21
>>> result_number("CCC1CNC(=O)c2c1[nH]c(-c1ccnc(NC(=O)Cc3ccc(F)cc3)c1)c2Nc1ccccc1 (single isomer, unassigned) [Example 3]")
8.00

Which pIC50 value is on record for Cn1cc(CC(F)(F)F)c2[nH]c(-c3ccnc(NC(=O)C(CC(F)F)c4ccc(F)cc4)c3)c(Nc3ccccc3)c2c1=O (single isomer, unassigned) [Example 37] ?
7.82

Queued: Cn1ccc2[nH]c(-c3ccnc(NC(=O)C(CC(F)F)c4ccc(F)cc4)c3)c(Nc3ccccc3)c2c1=O (racemic) [Example 28]
8.09
